Origin of values: PubChem BioAssay

# Assay protocol: HepG2 cytotoxicity, primary screen, cytotoxicity control for P. falciparum antimalarial project, cell-based, ATP luminescence (AID 2303);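 note: 0% = DMSO wells and 100% = digitonin-killed cells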
# Assay setup: HepG2 viability, 24-48 h, at 10 µM
Calls of active or inactive are those of the source.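 Rule for the calls: active = inhibition above 50%; inactive = the rest.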
Labels: active, inactive

Compound	Label
CC(C)NC(=O)Cn1cc(C2CCN(CC3CCN(C(=O)/C=C/c4ccc(Cl)c(Cl)c4)CC3)CC2)c2ccccc21	inactive
O=C(/C=C/c1ccc(Cl)c(Cl)c1)NCC1CCC(CN2CCC(c3c[nH]c4ccccc34)CC2)CC1 (stereo not given)	active
COc1ccc(CN2CCN(CCOC(c3ccc(F)cc3)c3ccc(F)cc3)CC2)c(O)c1	inactive
Cc1ccccc1C1=CCN(CCCN2c3ccccc3Sc3ccc(Cl)cc32)CC1	inactive
CN(c1cc(NC(=O)c2cccs2)ccn1)C1CCN(Cc2ccccc2)CC1	inactive
CN1CCC(N(C)c2nccc(N3CCN(Cc4cncn4Cc4ccccc4)CC3)n2)CC1	inactive
Oc1ccccc1CNCC(O)c1cccc(C(F)(F)F)c1 (stereo not given)	inactive
O=C(/C=C/c1ccc(Cl)c(Cl)c1)NC1CCC(N2CCC(c3c[nH]c4ccc(O)cc34)CC2)CC1 (stereo not given)	inactive
CC(Cc1ccc(SC(C)(C)C)cc1)NCC(O)c1cccc(Cl)c1 (stereo not given)	inactive
CC(Cc1ccc(OCCOc2ccccc2)cc1)NCC(O)c1cccc(C(F)(F)F)c1 (stereo not given)	inactive
O=C(NC1CCC(CN2CCC(c3c[nH]c4ccccc34)CC2)CC1)[C@H]1Cc2ccccc2CN1 (stereo not given in full)	inactive
CC(=O)Nc1ccc2[nH]cc(C3CCN(CC4CCN(C(=O)/C=C/c5ccc(Cl)c(Cl)c5)CC4)CC3)c2c1	inactive
CC[C@H]1CN2CC[C@H]1C[C@H]2[C@H](O)c1cc(N2CCCC(C(=O)N(CC)CC)C2)nc2ccc(OC)cc12 (stereo not given in full)	inactive
CC(=O)Nc1ccc(CN2CCC(N(C)c3ccc(NC(=O)c4cccc(C)c4)cc3)CC2)cc1	inactive
CC(Cc1ccc(SC(C)C)cc1)NCC(O)c1cccc(Cl)c1 (stereo not given)	inactive

* * *

# Tested on: Aerobactin synthetase IucA (Klebsiella pneumoniae, hypervirulent)
# Assay protocol: IucA enzyme inhibition, biochemical, LOPAC library, absorbance readout (AID 1346212);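 note: 100% = no compound wells and 0% = no enzyme wells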
# Assay setup: IucA enzyme assay, absorbance (OD) readout; hits give low values; concentration not given here
Measured remaining activity accompanies every entry in the list below.

Compound	remaining activity / %
N=C(N)c1ccc(N)cc1	112
c1ccc(C2(c3ccccc3)CC2C2=NCCN2)cc1 (stereo not given)	115
CC(C)(C=O)Cc1cc(C(C)(C)C)c(O)c(C(C)(C)C)c1	115
CN(C)CCOC(=O)COc1ccc(Cl)cc1	112
CC(=O)c1c(O)c(C)c(O)c(Cc2c(O)c3c(c(C(=O)/C=C/c4ccccc4)c2O)OC(C)(C)C=C3)c1O	100
NC(=O)c1cc(N2CC2)c([N+](=O)[O-])cc1[N+](=O)[O-]	112
C=C1C(=O)O[C@@H]2[C@H]3O[C@]3(C)CC/C=C(\C)CC[C@@H]12	119
Clc1cc(I)cc(Cl)c1NC1=NCCN1	117
CN(CCOc1ccc(C[C@H](Nc2ccccc2C(=O)c2ccccc2)C(=O)O)cc1)c1ccccn1	117
CCN(CC)c1ncnc2c1ncn2[C@@H]1O[C@H](COP(=O)(O)OP(=O)(O)C(Br)(Br)P(=O)(O)O)[C@@H](O)[C@H]1O	110
